# Study System: Recombinant human JAK1 catalytic domain (Homo sapiens (Human), UniProt P23458)
# Sequence (P23458 875-1153): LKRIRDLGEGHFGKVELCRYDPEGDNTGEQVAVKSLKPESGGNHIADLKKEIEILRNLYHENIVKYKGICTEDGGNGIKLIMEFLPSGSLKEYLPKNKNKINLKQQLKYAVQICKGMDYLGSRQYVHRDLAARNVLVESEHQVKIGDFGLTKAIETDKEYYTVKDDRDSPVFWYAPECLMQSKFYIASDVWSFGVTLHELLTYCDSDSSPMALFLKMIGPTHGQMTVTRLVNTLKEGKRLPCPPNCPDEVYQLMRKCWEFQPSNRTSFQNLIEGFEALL
# Test: JAK1 kinase assay (Z'-LYTE Tyr 6 Peptide)
# Format: biochemical
# Assay Conditions: JAK1 kinase assay, 0.3 uM concentration; read-out: inhibition percentage (IR %)
Assay Endpoint: inhibition at 0.3 µM

> print(dat)
                          chemical.structure  experimental.value
 1  CN(C(=O)CC1CC1)[C@@H]1CCN(c2ncnc3[nH]ccc23)C1           20 to 50%
 2  CCNS(=O)(=O)c1ccc(N(C)[C@@H]2CCN(c3ncnc4[nH]ccc34)C2)nc1          50 to 100%
 3  CN(C(=O)N1CCC[C@@H]1C(N)=O)[C@@H]1CCN(c2ncnc3[nH]ccc23)C1           20 to 50%
 4  CN(c1ccc(C#N)cc1-c1cccc(C#N)c1)[C@@H]1CCN(c2ncnc3[nH]ccc23)C1           20 to 50%
 5  CN(c1ccc(Br)cn1)[C@@H]1CCN(c2ncnc3[nH]ccc23)C1          50 to 100%
 6  C#CCN(c1ccc(S(C)(=O)=O)cn1)[C@@H]1CCN(c2ncnc3[nH]ccc23)C1           20 to 50%
 7  N#CCN(C1CC1)[C@@H]1CCN(c2ncnc3[nH]ccc23)C1          50 to 100%
 8  CN(c1ccc(S(=O)(=O)N2CCOCC2)cn1)[C@@H]1CCN(c2ncnc3[nH]ccc23)C1          50 to 100%
 9  N#Cc1cnc(N[C@@H]2CCN(c3ncnc4[nH]ccc34)C2)c([N+](=O)[O-])c1          50 to 100%
10  CN(c1ccncn1)[C@@H]1CCN(c2ncnc3[nH]ccc23)C1          50 to 100%
11  CN(c1ccc(C(=O)Nc2cccc(F)c2)cn1)[C@@H]1CCN(c2ncnc3[nH]ccc23)C1          50 to 100%

###

Measured inhibition at 0.3 µM by item
# Study System: Recombinant human JAK1 catalytic domain (Homo sapiens (Human), UniProt P23458)
# Test: JAK1 kinase assay (Z'-LYTE Tyr 6 Peptide)
# Type: biochemical
# Assay Conditions: JAK1 kinase assay, 0.3 uM concentration; read-out: inhibition percentage (IR %)
Assay Endpoint: inhibition at 0.3 µM

> print(dat)
                                   molecule                              study.system        assay.endpoint  experimental.value
1  Cc1ccc(N(C)[C@@H]2CCN(c3ncnc4[nH]ccc34)C2)nc1  Recombinant human JAK1 catalytic domain (Homo sapiens (Human), UniProt P23458)  inhibition at 0.3 µM          50 to 100%
2  CN(c1ccc([N+](=O)[O-])cn1)[C@@H]1CCN(c2ncnc3[nH]ccc23)C1  Recombinant human JAK1 catalytic domain (Homo sapiens (Human), UniProt P23458)  inhibition at 0.3 µM          50 to 100%
3  CN(c1ccc(S(C)(=O)=O)cc1)[C@@H]1CCN(c2ncnc3[nH]ccc23)C1  Recombinant human JAK1 catalytic domain (Homo sapiens (Human), UniProt P23458)  inhibition at 0.3 µM           20 to 50%
4  CN(c1ccn2nccc2n1)[C@@H]1CCN(c2ncnc3[nH]ccc23)C1  Recombinant human JAK1 catalytic domain (Homo sapiens (Human), UniProt P23458)  inhibition at 0.3 µM           20 to 50%
5  CN(C(=O)c1cccc(C#N)c1)[C@@H]1CCN(c2ncnc3[nH]ccc23)C1  Recombinant human JAK1 catalytic domain (Homo sapiens (Human), UniProt P23458)  inhibition at 0.3 µM           20 to 50%
6  CN(c1ccc(S(=O)(=O)NC2CCC[C@@H]2O)cn1)[C@@H]1CCN(c2ncnc3[nH]ccc23)C1 (stereo partly drawn)  Recombinant human JAK1 catalytic domain (Homo sapiens (Human), UniProt P23458)  inhibition at 0.3 µM          50 to 100%
7  CN(c1ccc(-c2nn[nH]n2)cc1F)[C@@H]1CCN(c2ncnc3[nH]ccc23)C1  Recombinant human JAK1 catalytic domain (Homo sapiens (Human), UniProt P23458)  inhibition at 0.3 µM          50 to 100%
8  CN(c1ccc(S(=O)(=O)Nc2ccc(F)cc2)cn1)[C@@H]1CCN(c2ncnc3[nH]ccc23)C1  Recombinant human JAK1 catalytic domain (Homo sapiens (Human), UniProt P23458)  inhibition at 0.3 µM          50 to 100%
9  CN(c1ccc(C(=O)NC2CC2)cn1)[C@@H]1CCN(c2ncnc3[nH]ccc23)C1  Recombinant human JAK1 catalytic domain (Homo sapiens (Human), UniProt P23458)  inhibition at 0.3 µM          50 to 100%

Taken from patent US10111875B2.
